Test: Peptide toxicity, MTT assay
Format: cell-based, human
Conditions: human, A549 cells
Where a SMILES comes first, the peptide text is derived from it. [ ]: non-standard residue; d: D form.
# reported viability at 48 h, 250 µg/mL; entries follow
Endpoint: viability at 48 h, 250 µg/mL

• CC(=O)N[C@@H](Cc1c[nH]c2ccccc12)C(=O)N1CCC[C@@H]1C(=O)N[C@@H](CCCNC(=N)N)C(=O)N[C@@H](Cc1c[nH]c2ccccc12)C(=O)N1CCC[C@@H]1C(=O)N[C@@H](CCCNC(=N)N)C(=O)O [SXV4] (Ac-W[dP]RW[dP]R-OH) = 98.2%
• O=C(O)CC[C@@H]1NC(=O)[C@H](Cc2c[nH]c3ccccc23)NC(=O)[C@H]2CCCN2C(=O)[C@H](CCC(=O)O)NC(=O)[C@H](Cc2c[nH]c3ccccc23)NC(=O)[C@H]2CCCN2C1=O [AOA-6] (cyclo(E[dP]WE[dP]W)) = 98.3%
• N=C(N)NCCC[C@@H]1NC(=O)[C@H](Cc2c[nH]c3ccccc23)NC(=O)[C@H]2CCCN2C(=O)[C@H](CCCNC(=N)N)NC(=O)[C@H](Cc2c[nH]c3ccccc23)NC(=O)[C@H]2CCCN2C1=O [AOA-1] (cyclo(R[dP]WR[dP]W)) = 98.9%
• N=C(N)NCCC[C@@H]1NC(=O)[C@@H](Cc2c[nH]c3ccccc23)NC(=O)[C@@H]2CCCN2C(=O)[C@H](CCCNC(=N)N)NC(=O)[C@@H](Cc2c[nH]c3ccccc23)NC(=O)[C@@H]2CCCN2C1=O [AOA-3] (cyclo(P[dW]RP[dW]R)) = 99.3%
• N=C(N)NCCC[C@@H]1NC(=O)[C@H]2CCCN2C(=O)[C@H](Cc2c[nH]c3ccccc23)NC(=O)[C@H](CCCNC(=N)N)NC(=O)[C@H]2CCCN2C(=O)[C@H](Cc2c[nH]c3ccccc23)NC1=O [AOA-2] (cyclo(RW[dP]RW[dP])) = 98.1%
• N=C(N)NCCC[C@H]1NC(=O)[C@H](Cc2c[nH]c3ccccc23)NC(=O)[C@@H]2CCCN2C(=O)[C@@H](CCCNC(=N)N)NC(=O)[C@H](Cc2c[nH]c3ccccc23)NC(=O)[C@@H]2CCCN2C1=O [AOA-4] (cyclo(PW[dR]PW[dR])) = 99.5%
• O=C1N[C@@H](CO)C(=O)N2CCC[C@@H]2C(=O)N[C@@H](Cc2c[nH]c3ccccc23)C(=O)N[C@@H](CO)C(=O)N2CCC[C@@H]2C(=O)N[C@H]1Cc1c[nH]c2ccccc12 [AOA-5] (cyclo(S[dP]WS[dP]W)) = 98.9%

###

Test: AOA-2 in vivo toxicity (Reed and Munch method)
Parameters: species or system mouse
Conditions: female, C57BL/6, mouse, in vivo, ip; mice, single i.p. dose, groups of six, survival one week; read-out: LD0 (maximum tolerated dose)
Where a SMILES comes first, the peptide text is derived from it. [ ]: non-standard residue; d: D form.
Endpoint: MTD at 168 h

• N=C(N)NCCC[C@@H]1NC(=O)[C@H]2CCCN2C(=O)[C@H](Cc2c[nH]c3ccccc23)NC(=O)[C@H](CCCNC(=N)N)NC(=O)[C@H]2CCCN2C(=O)[C@H](Cc2c[nH]c3ccccc23)NC1=O [AOA-2] (cyclo(RW[dP]RW[dP])) = 40 mg/kg

###

System: E. coli ATCC 25922
Type: cell-based
Where a SMILES comes first, the peptide text is derived from it. [ ]: non-standard residue; d: D form.
Endpoint: MIC

- N=C(N)NCCC[C@@H]1NC(=O)[C@H]2CCCN2C(=O)[C@H](Cc2c[nH]c3ccccc23)NC(=O)[C@H](CCCNC(=N)N)NC(=O)[C@H]2CCCN2C(=O)[C@H](Cc2c[nH]c3ccccc23)NC1=O [AOA-2] (cyclo(RW[dP]RW[dP])): > 500 µg/mL
- O=C(O)CC[C@@H]1NC(=O)[C@H](Cc2c[nH]c3ccccc23)NC(=O)[C@H]2CCCN2C(=O)[C@H](CCC(=O)O)NC(=O)[C@H](Cc2c[nH]c3ccccc23)NC(=O)[C@H]2CCCN2C1=O [AOA-6] (cyclo(E[dP]WE[dP]W)): > 500 µg/mL

###

Assay: Peptide toxicity, MTT assay
Assay type: cell-based, human
Conditions: human, A549 cells
Where a SMILES comes first, the peptide text is derived from it. [ ]: non-standard residue; d: D form.
Endpoint: viability at 48 h, 1000 µg/mL (%)

- N=C(N)NCCC[C@@H]1NC(=O)[C@H]2CCCN2C(=O)[C@H](Cc2c[nH]c3ccccc23)NC(=O)[C@H](CCCNC(=N)N)NC(=O)[C@H]2CCCN2C(=O)[C@H](Cc2c[nH]c3ccccc23)NC1=O [AOA-2] (cyclo(RW[dP]RW[dP])): 98.5
- CC(=O)N[C@@H](Cc1c[nH]c2ccccc12)C(=O)N1CCC[C@@H]1C(=O)N[C@@H](CCCNC(=N)N)C(=O)N[C@@H](Cc1c[nH]c2ccccc12)C(=O)N1CCC[C@@H]1C(=O)N[C@@H](CCCNC(=N)N)C(=O)O [SXV4] (Ac-W[dP]RW[dP]R-OH): 98.5
- N=C(N)NCCC[C@@H]1NC(=O)[C@@H](Cc2c[nH]c3ccccc23)NC(=O)[C@@H]2CCCN2C(=O)[C@H](CCCNC(=N)N)NC(=O)[C@@H](Cc2c[nH]c3ccccc23)NC(=O)[C@@H]2CCCN2C1=O [AOA-3] (cyclo(P[dW]RP[dW]R)): 99.4
- O=C1N[C@@H](CO)C(=O)N2CCC[C@@H]2C(=O)N[C@@H](Cc2c[nH]c3ccccc23)C(=O)N[C@@H](CO)C(=O)N2CCC[C@@H]2C(=O)N[C@H]1Cc1c[nH]c2ccccc12 [AOA-5] (cyclo(S[dP]WS[dP]W)): 100
- N=C(N)NCCC[C@@H]1NC(=O)[C@H](Cc2c[nH]c3ccccc23)NC(=O)[C@H]2CCCN2C(=O)[C@H](CCCNC(=N)N)NC(=O)[C@H](Cc2c[nH]c3ccccc23)NC(=O)[C@H]2CCCN2C1=O [AOA-1] (cyclo(R[dP]WR[dP]W)): 99.7
- O=C(O)CC[C@@H]1NC(=O)[C@H](Cc2c[nH]c3ccccc23)NC(=O)[C@H]2CCCN2C(=O)[C@H](CCC(=O)O)NC(=O)[C@H](Cc2c[nH]c3ccccc23)NC(=O)[C@H]2CCCN2C1=O [AOA-6] (cyclo(E[dP]WE[dP]W)): 99.4
- N=C(N)NCCC[C@H]1NC(=O)[C@H](Cc2c[nH]c3ccccc23)NC(=O)[C@@H]2CCCN2C(=O)[C@@H](CCCNC(=N)N)NC(=O)[C@H](Cc2c[nH]c3ccccc23)NC(=O)[C@@H]2CCCN2C1=O [AOA-4] (cyclo(PW[dR]PW[dR])): 100

###

Experiment: AOA-2 pharmacokinetics in serum
Settings: mouse, in vivo, ip, 10 mg/kg
Where a SMILES comes first, the peptide text is derived from it. [ ]: non-standard residue; d: D form.
Endpoint: half-life (min)

- N=C(N)NCCC[C@@H]1NC(=O)[C@H]2CCCN2C(=O)[C@H](Cc2c[nH]c3ccccc23)NC(=O)[C@H](CCCNC(=N)N)NC(=O)[C@H]2CCCN2C(=O)[C@H](Cc2c[nH]c3ccccc23)NC1=O [AOA-2] (cyclo(RW[dP]RW[dP])): 56
